Biological target: C3b (Homo sapiens, UniProt P01024)
Construct: Biotinylated C3b was captured site-specifically on a streptavidin chip
Sequence (P01024 23-667 limits assumed): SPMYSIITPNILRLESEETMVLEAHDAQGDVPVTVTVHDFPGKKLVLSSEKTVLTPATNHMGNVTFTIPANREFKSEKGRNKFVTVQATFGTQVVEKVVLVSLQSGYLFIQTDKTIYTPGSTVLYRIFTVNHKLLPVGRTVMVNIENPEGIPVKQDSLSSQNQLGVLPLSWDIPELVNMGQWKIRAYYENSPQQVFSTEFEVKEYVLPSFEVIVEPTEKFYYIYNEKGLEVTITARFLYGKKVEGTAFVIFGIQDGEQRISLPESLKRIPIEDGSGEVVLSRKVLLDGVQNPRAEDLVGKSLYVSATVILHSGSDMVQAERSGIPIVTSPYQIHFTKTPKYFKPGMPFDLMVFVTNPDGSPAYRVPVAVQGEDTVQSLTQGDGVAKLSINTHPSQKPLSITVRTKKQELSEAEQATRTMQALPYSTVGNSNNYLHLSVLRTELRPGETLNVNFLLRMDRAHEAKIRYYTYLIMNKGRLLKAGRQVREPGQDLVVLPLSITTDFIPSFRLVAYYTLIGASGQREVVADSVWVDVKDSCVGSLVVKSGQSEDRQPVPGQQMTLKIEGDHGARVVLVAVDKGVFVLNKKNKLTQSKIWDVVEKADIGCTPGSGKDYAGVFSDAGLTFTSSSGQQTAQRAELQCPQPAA
Sequence (P01024 749-1663 partner limits assumed): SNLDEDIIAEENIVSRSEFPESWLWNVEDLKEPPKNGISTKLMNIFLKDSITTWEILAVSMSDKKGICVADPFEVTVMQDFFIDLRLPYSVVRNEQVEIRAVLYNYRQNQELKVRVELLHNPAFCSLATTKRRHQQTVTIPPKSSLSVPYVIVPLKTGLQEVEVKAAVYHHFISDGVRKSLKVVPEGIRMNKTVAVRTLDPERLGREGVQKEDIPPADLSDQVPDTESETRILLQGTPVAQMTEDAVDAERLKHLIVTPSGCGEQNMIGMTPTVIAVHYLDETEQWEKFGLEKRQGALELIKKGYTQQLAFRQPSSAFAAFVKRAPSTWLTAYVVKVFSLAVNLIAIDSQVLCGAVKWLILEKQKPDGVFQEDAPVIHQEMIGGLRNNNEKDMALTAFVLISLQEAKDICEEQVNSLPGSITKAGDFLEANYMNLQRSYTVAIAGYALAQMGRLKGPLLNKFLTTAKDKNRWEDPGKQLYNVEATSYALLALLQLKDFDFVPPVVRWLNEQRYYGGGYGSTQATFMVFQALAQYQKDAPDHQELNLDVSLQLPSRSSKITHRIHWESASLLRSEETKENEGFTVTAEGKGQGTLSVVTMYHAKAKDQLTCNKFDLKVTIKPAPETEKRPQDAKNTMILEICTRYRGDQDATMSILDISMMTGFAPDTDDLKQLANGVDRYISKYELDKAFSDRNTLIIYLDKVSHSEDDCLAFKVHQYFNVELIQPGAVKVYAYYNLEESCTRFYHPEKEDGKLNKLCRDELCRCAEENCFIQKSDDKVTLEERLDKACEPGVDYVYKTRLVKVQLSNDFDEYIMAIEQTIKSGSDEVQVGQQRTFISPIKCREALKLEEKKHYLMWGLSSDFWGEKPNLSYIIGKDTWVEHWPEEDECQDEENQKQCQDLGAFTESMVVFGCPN
Assay: SPR kinetic analysis of binding to immobilized C3b (Biacore, single cycle kinetics)
Settings: Table 1, N-terminal analogs
Bridge positions count the residues as written; N and C are the ends. Square brackets hold non-standard residues; d marks the D form. Peptide text beside a SMILES is read from it. Trp(1-Me) = Cn1cc(C[C@H](N)C(=O)O)c2ccccc21; NMeI = CC[C@H](C)[C@H](NC)C(=O)O; Sar = CNCC(=O)O
Measurement Name: ka: association rate

# Compound, Target, Measurement Name, Value Reported
records = [
    ("CC[C@H](C)[C@H](NC(=O)[C@H](N)Cc1c[nH]c2ccccc12)C(=O)N[C@H]1CSSC[C@@H](C(=O)N(C)[C@H](C(N)=O)[C@@H](C)CC)NC(=O)[C@H](CCCNC(=N)N)NC(=O)[C@H](Cc2c[nH]cn2)NC(=O)[C@H](C)NC(=O)CN(C)C(=O)[C@H](Cc2c[nH]c3ccccc23)NC(=O)[C@H](CC(=O)O)NC(=O)[C@H](CCC(N)=O)NC(=O)[C@H](Cc2cn(C)c3ccccc23)NC(=O)[C@H](C(C)C)NC1=O [compound 16]", "C3b (Homo sapiens, UniProt P01024)", "ka: association rate", "2.0 ± 0.2 10^6/Ms"),
    ("CC[C@H](C)[C@H](NC(=O)[C@@H](N)Cc1c[nH]c2ccccc12)C(=O)N[C@H]1CSSC[C@@H](C(=O)N(C)[C@H](C(N)=O)[C@@H](C)CC)NC(=O)[C@H](CCCNC(=N)N)NC(=O)[C@H](Cc2c[nH]cn2)NC(=O)[C@H](C)NC(=O)CN(C)C(=O)[C@H](Cc2c[nH]c3ccccc23)NC(=O)[C@H](CC(=O)O)NC(=O)[C@H](CCC(N)=O)NC(=O)[C@H](Cc2cn(C)c3ccccc23)NC(=O)[C@H](C(C)C)NC1=O [compound 7] (H-WICV[Trp(1-Me)]QDW[Sar]AHRC[NMeI]-NH2; disulfide 3-13)", "C3b (Homo sapiens, UniProt P01024)", "ka: association rate", "1.6 ± 0.1 10^6/Ms"),
    ("CC[C@H](C)[C@H](NC(=O)[C@@H](N)CCCNC(=N)N)C(=O)N[C@H]1CSSC[C@@H](C(=O)N(C)[C@H](C(N)=O)[C@@H](C)CC)NC(=O)[C@H](CCCNC(=N)N)NC(=O)[C@H](Cc2c[nH]cn2)NC(=O)[C@H](C)NC(=O)CN(C)C(=O)[C@H](Cc2c[nH]c3ccccc23)NC(=O)[C@H](CC(=O)O)NC(=O)[C@H](CCC(N)=O)NC(=O)[C@H](Cc2cn(C)c3ccccc23)NC(=O)[C@H](C(C)C)NC1=O [compound 6] (H-RICV[Trp(1-Me)]QDW[Sar]AHRC[NMeI]-NH2; disulfide 3-13)", "C3b (Homo sapiens, UniProt P01024)", "ka: association rate", "1.7 ± 0.2 10^6/Ms"),
]

----------
Attribute: Hydrophobicity Retention Time
Assay: Solubility in WFI and DPBS; UPLC C18 retention time as hydrophobicity
Settings: UPLC analysis on a C18 column

# Molecule, Hydrophobicity Retention Time / min
records = [
    ("CC[C@H](C)[C@H](NC(=O)[C@H](N)Cc1ccc(O)cc1)C(=O)N[C@H]1CSSC[C@@H](C(=O)N(C)[C@H](C(N)=O)[C@@H](C)CC)NC(=O)[C@H](CCCNC(=N)N)NC(=O)[C@H](Cc2c[nH]cn2)NC(=O)[C@H](C)NC(=O)CN(C)C(=O)[C@H](Cc2c[nH]c3ccccc23)NC(=O)[C@H](CC(=O)O)NC(=O)[C@H](CCC(N)=O)NC(=O)[C@H](Cc2cn(C)c3ccccc23)NC(=O)[C@H](C(C)C)NC1=O [peptide 14]", 4.73),
    ("CC[C@H](C)[C@H](NC(C)=O)C(=O)N[C@H]1CSSC[C@@H](C(=O)N(C)[C@H](C(N)=O)[C@@H](C)CC)NC(=O)[C@H](CCCNC(=N)N)NC(=O)[C@H](Cc2c[nH]cn2)NC(=O)[C@H](C)NC(=O)CN(C)C(=O)[C@H](Cc2c[nH]c3ccccc23)NC(=O)[C@H](CC(=O)O)NC(=O)[C@H](CCC(N)=O)NC(=O)[C@H](Cc2cn(C)c3ccccc23)NC(=O)[C@H](C(C)C)NC1=O [Cp20, reference compound]", 5.33),
    ("CC[C@H](C)[C@H](NC(=O)CNC)C(=O)N[C@H]1CSSC[C@@H](C(=O)N(C)[C@H](C(N)=O)[C@@H](C)CC)NC(=O)[C@H](CCCNC(=N)N)NC(=O)[C@H](Cc2c[nH]cn2)NC(=O)[C@H](C)NC(=O)CN(C)C(=O)[C@H](Cc2c[nH]c3ccccc23)NC(=O)[C@H](CC(=O)O)NC(=O)[C@H](CCC(N)=O)NC(=O)[C@H](Cc2cn(C)c3ccccc23)NC(=O)[C@H](C(C)C)NC1=O [peptide 3]", 4.60),
]

Recorded values, source patent US20210032291A1.
